This section presents compounds with their documented pIC50 values.
Target: Phospholipase A2 (Homo sapiens)
Sequence (P04054 whole entry): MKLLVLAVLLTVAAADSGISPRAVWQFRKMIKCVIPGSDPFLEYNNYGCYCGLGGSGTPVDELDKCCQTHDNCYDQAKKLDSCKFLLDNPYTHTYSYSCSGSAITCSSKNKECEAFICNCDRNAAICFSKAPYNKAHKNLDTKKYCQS
Assay: Inhibition of recombinant human secretory phospholipase A2 (sPLA2), chromogenic screening assay.
pIC50: −log10 of the molar value.
quantity-measured: pIC50

>  <structure-notation>
CCCCCc1c(CC)c(C(=O)C(N)=O)c2c(OCC(=O)O)cccn12

>  <reported-measurement>
7.21

$$$$
>  <structure-notation>
CCc1c(CC(N)=O)c2c(OCC(=O)O)cccn2c1Cc1ccccc1-c1ccccc1

>  <reported-measurement>
7.85

$$$$
>  <structure-notation>
NC(=O)C(=O)c1c(C2CC2)c(Cc2ccccc2-c2ccccc2)n2cccc(OCCCC(=O)O)c12

>  <reported-measurement>
5.36

$$$$
>  <structure-notation>
CCc1c(C(=O)C(N)=O)c2c(OCCCCC(=O)O)cccn2c1Cc1ccccc1-c1ccccc1

>  <reported-measurement>
5.89

$$$$
>  <structure-notation>
CCc1c(Cc2ccccc2)c2ccc(OCCCC(=O)O)cn2c1C(=O)C(N)=O

>  <reported-measurement>
5.96

$$$$
>  <structure-notation>
NC(=O)C(=O)c1c(C2CC2)c(Cc2ccccc2)n2cccc(OCC(=O)O)c12

>  <reported-measurement>
7.34

$$$$
>  <structure-notation>
CCc1c(C(=O)C(N)=O)c2c(OCC(=O)O)cccn2c1CCc1ccccc1

>  <reported-measurement>
7.29

$$$$
>  <structure-notation>
CCc1c(C(=O)C(N)=O)c2c(OCC(=O)O)cccn2c1CC1CCCCCC1

>  <reported-measurement>
7.64

$$$$
>  <structure-notation>
COC(=O)COc1cccn2c(Cc3ccccc3-c3ccccc3)c(C(C)(C)C)c(C(=O)C(N)=O)c12

>  <reported-measurement>
7.00

$$$$
